Target: KOP receptor (Homo sapiens, UniProt P41145)
Sequence (P41145 whole entry): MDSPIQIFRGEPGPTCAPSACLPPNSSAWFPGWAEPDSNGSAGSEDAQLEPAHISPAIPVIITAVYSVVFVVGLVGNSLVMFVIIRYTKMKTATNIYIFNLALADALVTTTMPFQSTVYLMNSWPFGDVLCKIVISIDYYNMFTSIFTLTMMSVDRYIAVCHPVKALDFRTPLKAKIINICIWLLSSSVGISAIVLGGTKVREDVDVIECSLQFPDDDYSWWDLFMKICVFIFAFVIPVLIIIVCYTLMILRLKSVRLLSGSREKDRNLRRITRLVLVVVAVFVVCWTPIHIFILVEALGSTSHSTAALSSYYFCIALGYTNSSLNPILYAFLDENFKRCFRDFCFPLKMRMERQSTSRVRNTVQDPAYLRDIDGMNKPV
Mark 1 (yes) only for EC50 values smaller than 5 nM; exact matches and larger values are 0 (no).

{"smiles_data": "COc1cccc(CC(=O)O[C@@]23CCC(=O)[C@@H]4Oc5c(O)ccc6c5[C@@]42CCN(CC2CC2)C3C6)c1", "assigned_class": "1 (yes)"}
{"smiles_data": "O=C(Cc1ccc(Cl)cc1)O[C@@]12CCC(=O)[C@@H]3Oc4c(O)ccc5c4[C@@]31CCN(CC1CC1)C2C5", "assigned_class": "0 (no)"}
{"smiles_data": "COc1ccccc1CC(=O)O[C@@]12CCC(=O)[C@@H]3Oc4c(O)ccc5c4[C@@]31CCN(CC1CC1)[C@@H]2C5", "assigned_class": "1 (yes)"}
{"smiles_data": "O=C(Cc1ccc2c(c1)OCO2)O[C@@]12CCC(=O)[C@@H]3Oc4c(O)ccc5c4[C@@]31CCN(CC1CC1)[C@@H]2C5", "assigned_class": "0 (no)"}
{"smiles_data": "O=C(Cc1ccccc1F)O[C@@]12CCC(=O)[C@@H]3Oc4c(O)ccc5c4[C@@]31CCN(CC1CC1)[C@@H]2C5", "assigned_class": "1 (yes)"}
{"smiles_data": "O=C(Cc1ccccc1)O[C@@]12CCC(=O)[C@@H]3Oc4c(O)ccc5c4[C@@]31CCN(CC1CC1)[C@@H]2C5", "assigned_class": "1 (yes)"}
{"smiles_data": "Cc1ccc(CC(=O)O[C@@]23CCC(=O)[C@@H]4Oc5c(O)ccc6c5[C@@]42CCN(CC2CC2)[C@@H]3C6)cc1", "assigned_class": "0 (no)"}
